The origin of these recorded values is the supplement of paper PMC7877785.

Test: self-splicing fitness, log relative to wild type (ln ratio); higher = more splicing; Tetrahymena group I intron in knt gene, E. coli kanamycin selection, DiMSum; sequences stand for … in CUCUCU…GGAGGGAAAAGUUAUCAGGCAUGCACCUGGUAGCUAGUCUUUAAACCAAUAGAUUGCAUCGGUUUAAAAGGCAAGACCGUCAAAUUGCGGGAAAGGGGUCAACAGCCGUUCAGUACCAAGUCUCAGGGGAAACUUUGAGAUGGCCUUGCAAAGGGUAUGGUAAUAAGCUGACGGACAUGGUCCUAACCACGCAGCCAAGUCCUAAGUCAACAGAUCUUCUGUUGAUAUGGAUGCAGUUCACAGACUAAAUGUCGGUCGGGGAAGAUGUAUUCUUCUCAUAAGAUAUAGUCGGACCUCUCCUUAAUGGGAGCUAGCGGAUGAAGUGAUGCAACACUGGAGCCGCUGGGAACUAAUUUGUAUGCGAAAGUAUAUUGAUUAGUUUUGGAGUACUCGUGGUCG;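 also: selection with 25 µg/mL kanamycin versus none on LB agar overnight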
Settings: 30 °C
Okay, here is how we bin by self-splicing fitness (ln): bottom range (below -3), center range (-3 to below -1), top range (-1 or more)

Answered cases to consult:
SEQ STRING: UGUCAGCAAUAUUACGGUUG
GROUP LABEL: top range
--
SEQ STRING: GAGCAGCAAUAUUACGCUAG
GROUP LABEL: center range
--
SEQ STRING: GGCCAGCAAUAUUACGUGGU
GROUP LABEL: bottom range
--
SEQ STRING: GGAAAGCAAUAUUACGGUCG
GROUP LABEL: top range
--
SEQ STRING: CGAGAGCAAUAUUACGUACC
GROUP LABEL: bottom range

# classify by self-splicing fitness (ln) band: AACUAGCAAUAUUACGCACC
top range

# classify by self-splicing fitness (ln) band: AAGCAGCAAUAUUACGGACC
center range

# classify by self-splicing fitness (ln) band: UCGUAGCAAUAUUACGAUGA
top range

###

Assay: self-splicing fitness, log relative to wild type (ln ratio); higher = more splicing; Tetrahymena group I intron in knt gene, E. coli kanamycin selection, DiMSum; sequences stand for … in CUCUCU…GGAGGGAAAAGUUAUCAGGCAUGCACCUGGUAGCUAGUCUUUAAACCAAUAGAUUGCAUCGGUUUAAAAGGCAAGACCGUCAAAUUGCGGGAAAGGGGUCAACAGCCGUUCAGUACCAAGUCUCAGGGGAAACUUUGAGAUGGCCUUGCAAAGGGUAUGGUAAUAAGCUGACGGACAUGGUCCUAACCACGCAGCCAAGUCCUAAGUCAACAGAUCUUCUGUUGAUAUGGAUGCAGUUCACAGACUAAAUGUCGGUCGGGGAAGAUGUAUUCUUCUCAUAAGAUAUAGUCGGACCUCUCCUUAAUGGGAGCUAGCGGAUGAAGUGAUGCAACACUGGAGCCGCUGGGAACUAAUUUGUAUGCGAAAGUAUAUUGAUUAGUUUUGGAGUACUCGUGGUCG
Details: 37 °C
# maps each entry to its self-splicing fitness (ln)
Form: value (number only, do not type unit).

SEQ STRING: CUCAAGCAAUAUUACGCACG
self-splicing fitness (ln): -0.724
--
SEQ STRING: AAGCAGCAAUAUUACGCACC
self-splicing fitness (ln): 0.0945
--
SEQ STRING: CAGAAGCAAUAUUACGGUUC
self-splicing fitness (ln): -2.49
--
SEQ STRING: UAAGAGCAAUAUUACGGGAA
self-splicing fitness (ln): -1.77

Give recorded self-splicing fitness (ln). UGUUAGCAAUAUUACGACCG
0.106

Give recorded self-splicing fitness (ln). AAUAAGCAAUAUUACGUUGU
-2.51

Give recorded self-splicing fitness (ln). ACUUAGCAAUAUUACGAGUC
-3.01
